experimental-endpoint: melting point

The recorded melting point for entry OCCSc1nnc(-c2cccc(I)c2)o1 [Compound 5e] equals 170 °C

Lab note: measured melting point of OCCSc1nnc(-c2cccc(Br)c2)o1 [Compound 5d] was 186 to 190 °C

Short answer for OCCSc1nnc(-c2ccccc2O)o1 [Compound 5a] : melting point was 165 to 170 °C

Documented melting point of OCCSc1nnc(-c2ccncc2)o1 [4a(c)] : 180 °C

// melting point value for OCCSc1nnc(-c2ccccc2Cl)o1 [Compound 5c] : 165 °C

The measured melting point associated with OCCSc1nnc(-c2cc(O)c(O)c(O)c2)o1 [Compound 5f] reads 265 to 270 °C

Reported melting point of OCCSc1nnc(-c2ccccc2)o1 [Compound 5g] : 207 to 210 °C

* * *

assay-target: UniProt:P00690
experiment-description: In vitro alpha-amylase inhibitory activity (starch/DNS, 540 nm)
Format: biochemical
measurement-setup: concentration not stated (test compounds 1–100 μg/ml)
experimental-endpoint: % Inhibition (alpha-amylase) (%)
Provide the reading as a plain figure in %.

* OCCSc1nnc(-c2cccc(I)c2)o1 [Compound 5e] | 40.2
* OCCSc1nnc(-c2ccncc2)o1 [4a(c)] | 3.21
* OCCSc1nnc(-c2ccccc2Cl)o1 [Compound 5c] | 49.41
* OCCSc1nnc(-c2ccccn2)o1 [4a(a)] | 9.42
* OCCSc1nnc(-c2ccc(O)cc2)o1 [Compound 5b] | 50.11

I looked up OCCSc1nnc(-c2ccccc2O)o1 [Compound 5a] and its % Inhibition (alpha-amylase) for UniProt:P00690 was 56.41

The value of % Inhibition (alpha-amylase) recorded for OCCSc1nnc(-c2cccnc2)o1 [4a(b)] when tested on UniProt:P00690 reads 26

// returns % Inhibition (alpha-amylase) for OCCSc1nnc(-c2cc(O)c(O)c(O)c2)o1 [Compound 5f] with UniProt:P00690; value = 19.04

% Inhibition (alpha-amylase) on UniProt:P00690 for OCCSc1nnc(-c2ccccc2)o1 [Compound 5g] is 92.16

Case OCCSc1nnc(-c2cccc(Br)c2)o1 [Compound 5d] , UniProt:P00690, % Inhibition (alpha-amylase) recorded as 43.6

* * *

The entries below come with measured IC50 values attached.
assay-target: porcine pancreatic amylase (Sus scrofa, UniProt P00690)
Sequence (P00690 16-511): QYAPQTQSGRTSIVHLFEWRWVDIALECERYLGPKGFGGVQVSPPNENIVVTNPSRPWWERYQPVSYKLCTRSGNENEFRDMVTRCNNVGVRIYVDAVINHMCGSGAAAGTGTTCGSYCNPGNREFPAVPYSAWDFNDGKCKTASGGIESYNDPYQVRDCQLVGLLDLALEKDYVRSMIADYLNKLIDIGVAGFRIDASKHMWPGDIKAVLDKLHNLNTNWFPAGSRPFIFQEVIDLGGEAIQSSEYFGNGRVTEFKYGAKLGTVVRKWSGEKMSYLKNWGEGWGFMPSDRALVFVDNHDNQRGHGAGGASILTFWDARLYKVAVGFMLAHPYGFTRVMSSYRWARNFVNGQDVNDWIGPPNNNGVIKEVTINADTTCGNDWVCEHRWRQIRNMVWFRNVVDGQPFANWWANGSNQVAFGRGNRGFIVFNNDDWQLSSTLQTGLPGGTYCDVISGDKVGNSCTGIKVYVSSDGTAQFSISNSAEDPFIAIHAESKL
experiment-description: In vitro alpha-amylase inhibitory activity (starch/DNS, 540 nm)
Format: biochemical
measurement-setup: porcine pancreatic amylase, pH 6.8, 25 °C; test compounds 1–100 μg/ml; ± SEM; read-out: IC50 µg/ml ± SEM (alpha-amylase inhibition) (converted)
Numeric only. Scale: µM

Sample records with IC50:
- OCCSc1nnc(-c2ccccn2)o1: 1300
- OCCSc1nnc(-c2cccc(I)c2)o1: 279
- OCCSc1nnc(-c2ccc(O)cc2)o1: 272
- OCCSc1nnc(-c2ccccc2O)o1: 252
- OCCSc1nnc(-c2cc(O)c(O)c(O)c2)o1: 772

Moving on to another compound below.
Lab note: measured IC50 of `OCCSc1nnc(-c2ccncc2)o1` was 1770

* * *

assay-target: α-glucosidase
experiment-description: In vitro alpha-glucosidase inhibitory activity (p-NPG, 400 nm)
Assay type: biochemical
measurement-setup: p-NPG substrate, 37 °C; test compounds 1-100 μg/ml; ± SEM
Catalogue of IC50 µg/ml ± SEM (alpha-glucosidase inhibition) values
Enter your answer as a number in µg/mL; do not include the unit.

* OCCN1C[C@H](O)[C@@H](O)[C@H](O)[C@H]1CO [Miglitol, reference compound] | 11.47
* OCCSc1nnc(-c2ccncc2)o1 | 299.11
* OCCSc1nnc(-c2cccc(I)c2)o1 | 68.02
* OCCSc1nnc(-c2cc(O)c(O)c(O)c2)o1 | 273.06
* OCCSc1nnc(-c2ccccc2O)o1 | 12.27
* OCCSc1nnc(-c2ccccc2Cl)o1 | 69.04

Form field IC50 µg/ml ± SEM (alpha-glucosidase inhibition) for item `OCCSc1nnc(-c2cccc(Br)c2)o1` on α-glucosidase: 73.61

Recorded IC50 µg/ml ± SEM (alpha-glucosidase inhibition) for `OCCSc1nnc(-c2ccccc2)o1` on α-glucosidase was 80.8

Summary: `OCCSc1nnc(-c2ccccn2)o1` , α-glucosidase, IC50 µg/ml ± SEM (alpha-glucosidase inhibition) = 15.45

`OCCSc1nnc(-c2ccc(O)cc2)o1` on α-glucosidase gives IC50 µg/ml ± SEM (alpha-glucosidase inhibition) = 62.01
